measurement-description: Protein binding in mouse serum at 100 ug/ml by ultrafiltration method
Assay type: ADME, cell-free
run-parameters: read-out: PB (converted)
readout-name: fraction unbound at 100 ug/ml
When you answer, write just the number.

Ask | Which fraction unbound at 100 ug/ml value is on record for C[C@H]1C=C(c2csc(SC3=C(C(=O)O)N4C(=O)[C@H]([C@@H](C)O)[C@H]4[C@H]3C)n2)CN1 ?
Reply | 0.22

---

measurement-description: Protein binding in mouse serum at 10 ug/ml by ultrafiltration method
Type: ADME, cell-free
run-parameters: read-out: PB (converted)
readout-name: fraction unbound at 10 ug/ml
When you answer, write just the number.

Ask | Which fraction unbound at 10 ug/ml value is on record for C[C@H]1C=C(c2csc(SC3=C(C(=O)O)N4C(=O)[C@H]([C@@H](C)O)[C@H]4[C@H]3C)n2)CN1 [RAZUPENEM] ?
Reply | 0.25
